Entries annotated with measured AC50
Molecular target: Muscarinic acetylcholine receptor M2 (Homo sapiens); further: assay procedure not described here
Sequence (P08172 whole entry): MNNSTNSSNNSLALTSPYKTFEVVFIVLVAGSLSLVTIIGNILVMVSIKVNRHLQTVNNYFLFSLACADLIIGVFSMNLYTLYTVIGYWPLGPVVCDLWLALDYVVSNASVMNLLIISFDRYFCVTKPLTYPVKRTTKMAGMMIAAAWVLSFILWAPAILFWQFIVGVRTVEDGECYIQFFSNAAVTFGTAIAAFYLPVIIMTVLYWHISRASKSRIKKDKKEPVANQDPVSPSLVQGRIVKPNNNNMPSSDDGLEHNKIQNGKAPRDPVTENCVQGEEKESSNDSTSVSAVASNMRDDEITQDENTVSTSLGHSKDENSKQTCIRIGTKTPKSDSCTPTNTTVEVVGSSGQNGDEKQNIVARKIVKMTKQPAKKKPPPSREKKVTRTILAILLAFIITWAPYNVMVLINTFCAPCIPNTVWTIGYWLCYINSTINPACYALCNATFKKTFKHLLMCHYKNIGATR
Assay type: functional, cell-based

Answered examples (3):
molecule=CCCc1nc2c(C)cc(-c3nc4ccccc4n3C)cc2n1Cc1ccc(-c2ccccc2C(=O)O)cc1 assayed_target="Muscarinic acetylcholine receptor M2 (Homo sapiens)" measurement="> 30 µM"
molecule="CCN1CC(CCN2CCOCC2)C(c2ccccc2)(c2ccccc2)C1=O (stereo not given)" assayed_target="Muscarinic acetylcholine receptor M2 (Homo sapiens)" measurement="> 30 µM"
molecule=CCC(=O)O[C@](Cc1ccccc1)(c1ccccc1)[C@H](C)CN(C)C assayed_target="Muscarinic acetylcholine receptor M2 (Homo sapiens)" measurement="> 10 µM"

Inquiry: Requested field: AC50. Item: CC(=O)c1ccc(S(=O)(=O)NC(=O)NC2CCCCC2)cc1 [ACETOHEXAMIDE]
Reply text: > 10 µM

Inquiry: What about this molecule? "O=C1Cc2cc(CCN3CCN(c4nsc5ccccc45)CC3)c(Cl)cc2N1"
Reply text: > 10 µM

----------
List of AC50 tested on UniProt:P23975.
Sequence (P23975 whole entry): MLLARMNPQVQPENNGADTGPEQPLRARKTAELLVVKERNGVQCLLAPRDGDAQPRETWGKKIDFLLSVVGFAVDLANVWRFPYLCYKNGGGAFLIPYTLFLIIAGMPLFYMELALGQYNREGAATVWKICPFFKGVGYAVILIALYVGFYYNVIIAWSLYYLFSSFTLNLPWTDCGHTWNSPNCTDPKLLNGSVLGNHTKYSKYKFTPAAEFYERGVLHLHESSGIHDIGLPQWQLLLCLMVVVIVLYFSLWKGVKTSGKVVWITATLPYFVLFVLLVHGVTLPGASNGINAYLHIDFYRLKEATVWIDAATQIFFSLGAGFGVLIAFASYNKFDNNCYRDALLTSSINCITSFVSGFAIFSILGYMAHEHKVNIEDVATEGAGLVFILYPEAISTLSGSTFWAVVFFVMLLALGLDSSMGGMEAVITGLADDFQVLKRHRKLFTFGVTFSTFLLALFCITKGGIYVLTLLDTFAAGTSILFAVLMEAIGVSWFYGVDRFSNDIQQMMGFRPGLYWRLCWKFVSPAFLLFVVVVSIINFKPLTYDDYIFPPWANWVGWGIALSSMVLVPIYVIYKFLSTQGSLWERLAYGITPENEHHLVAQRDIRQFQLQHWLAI

Known results for compounds:
compound=C[N+](C)(C)CCOC(=O)CCC(=O)OCC[N+](C)(C)C assayed_target=UniProt:P23975 measurement="> 30 µM"
compound="CC[N+](C)(CC)CCOC(=O)C(O)(c1ccccc1)C1CCCCC1 (stereo not given)" assayed_target=UniProt:P23975 measurement="> 30 µM"
compound="CC(C)(C)NC(=O)N[C@H](C(=O)N1C[C@H]2[C@@H]([C@H]1C(=O)NC(CC1CCC1)C(=O)C(N)=O)C2(C)C)C(C)(C)C (stereo not given in full)" assayed_target=UniProt:P23975 measurement="> 30 µM"
compound=CC(O)(P(=O)(O)O)P(=O)(O)O assayed_target=UniProt:P23975 measurement="> 30 µM"
compound=C[N+](C)(C)CCOP(=O)(O)OP(=O)([O-])OC[C@H]1O[C@@H](n2ccc(N)nc2=O)[C@H](O)[C@@H]1O assayed_target=UniProt:P23975 measurement="> 30 µM"

Inquiry: Name the recorded AC50 for "CC1(C)S[C@@H]2[C@H](/N=C/N3CCCCCC3)C(=O)N2[C@H]1C(=O)O" .
Reply text: > 30 µM

Inquiry: Try the compound CCCCC1C(=O)N(c2ccccc2)N(c2ccc(O)cc2)C1=O (stereo not given) [OXYPHENBUTAZONE ANHYDROUS]
Reply text: > 30 µM

Inquiry: Could you do the same for "CC(=O)[C@H]1CC[C@H]2[C@@H]3C=CC4=CC(=O)CC[C@@]4(C)[C@@H]3CC[C@]12C" , please?
Reply text: > 30 µM

Inquiry: Now this one: C[C@@H]1C[C@H]2[C@@H]3C[C@H](F)C4=CC(=O)C=C[C@]4(C)[C@@]3(F)[C@@H](O)C[C@]2(C)[C@@]1(OC(=O)c1ccco1)C(=O)SCF [FLUTICASONE FUROATE]
Reply text: > 30 µM

Inquiry: Param item: O=C(NNCS(=O)(=O)O)c1ccncc1 [METHANIAZIDE]
Reply text: > 30 µM

Inquiry: Next: CN1CCCN(C(c2ccccc2)c2ccc(Cl)cc2)CC1 (stereo not given)
Reply text: 12.9 µM

Inquiry: Likewise for "CCCSc1nc(N[C@@H]2C[C@H]2c2ccc(F)c(F)c2)c2nnn([C@@H]3C[C@H](OCCO)[C@@H](O)[C@H]3O)c2n1" ?
Reply text: 14.8 µM

Inquiry: Okay, and "C[N+](C)(CCCCCC[N+](C)(C)C1c2ccccc2-c2ccccc21)C1c2ccccc2-c2ccccc21" ?
Reply text: 1.44 µM

Inquiry: Another compound to look at: "C[Se]CC[C@H](N)C(=O)O"
Reply text: > 30 µM

Inquiry: // next record "Cc1cn([C@H]2O[C@@H](CO)[C@H](O)[C@H]2F)c(=O)[nH]c1=O"
Reply text: > 30 µM

Inquiry: Now consider "Nc1c(CC(=O)O)cccc1C(=O)c1ccc(Br)cc1" and answer again.
Reply text: > 30 µM

Inquiry: "Cc1cc(=O)[nH]c(=S)[nH]1" ?
Reply text: > 30 µM

Inquiry: Moving on to "C[C@H](N[C@@H](CCc1ccccc1)C(=O)O)C(=O)N1Cc2ccccc2C[C@H]1C(=O)O"
Reply text: > 30 µM

Inquiry: Follow-up item: "COc1cc(C(C)=O)ccc1OCCCN1CCC(c2noc3cc(F)ccc23)CC1"
Reply text: 1.19 µM

----------
AC50 overview
target: Alpha-1A adrenergic receptor (Homo sapiens); assay type: functional, cell-based; further: assay procedure not described here
Sequence (P35348 whole entry): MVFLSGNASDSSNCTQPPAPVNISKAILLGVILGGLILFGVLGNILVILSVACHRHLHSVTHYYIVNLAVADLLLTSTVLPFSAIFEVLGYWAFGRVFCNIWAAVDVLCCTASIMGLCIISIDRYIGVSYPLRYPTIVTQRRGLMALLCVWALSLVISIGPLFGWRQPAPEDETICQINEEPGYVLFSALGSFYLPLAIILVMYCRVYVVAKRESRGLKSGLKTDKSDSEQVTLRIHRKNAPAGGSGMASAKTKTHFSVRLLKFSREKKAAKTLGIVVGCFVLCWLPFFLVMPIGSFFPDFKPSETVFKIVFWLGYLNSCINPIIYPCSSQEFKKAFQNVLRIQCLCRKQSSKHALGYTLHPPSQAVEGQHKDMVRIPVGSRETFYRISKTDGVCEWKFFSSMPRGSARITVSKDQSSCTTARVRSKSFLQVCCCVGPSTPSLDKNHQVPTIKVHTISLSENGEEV

Some solved entries appear below for comparison.
compound="Cc1ccc(C(=O)C(C)CN2CCCCC2)cc1 (stereo not drawn)" measurement="> 30 µM"
compound=C[N+](C)(CCCCCC[N+](C)(C)C1c2ccccc2-c2ccccc21)C1c2ccccc2-c2ccccc21 measurement="> 30 µM"

Inquiry: Value wanted: AC50 (Alpha-1A adrenergic receptor (Homo sapiens)) of entry "N#Cc1ccc(Oc2ccc3c(c2)COB3O)cc1"
Reply text: > 30 µM

----------
biological target: B2 bradykinin receptor (Homo sapiens, UniProt P30411); further: assay procedure not described here
Readout Kind: AC50

Inquiry: Can you share its AC50? I mean this compound: C/C=C(/C(=C/C)c1ccc(O)cc1)c1ccc(O)cc1 [DIENESTROL]
Reply text: > 10 µM

Inquiry: Next record, please: CC(=O)O[C@]1(C(C)=O)CC[C@H]2[C@@H]3C=C(Cl)C4=CC(=O)[C@@H]5C[C@@H]5[C@]4(C)[C@H]3CC[C@@]21C [CYPROTERONE ACETATE]
Reply text: > 30 µM

Inquiry: Similarly, O=C1c2ccccc2C(=O)C1c1ccccc1 [PHENINDIONE] ?
Reply text: > 10 µM

Inquiry: Request: CC(O)(CS(=O)(=O)c1ccc(F)cc1)C(=O)Nc1ccc(C#N)c(C(F)(F)F)c1 (stereo unspecified) [BICALUTAMIDE]
Reply text: > 30 µM

Inquiry: Follow-up item: CCOC(=O)c1ncn2c1CN(C)C(=O)c1cc(F)ccc1-2 [FLUMAZENIL]
Reply text: > 30 µM

----------
Each entry below carries its recorded AC50.
target: Glutamate receptor ionotropic, NMDA 1 (Rattus norvegicus, UniProt P35439); further: assay procedure not described here

Here's what some known entries look like.
molecule="C=CCN1CCc2nc(N)sc2CC1 [TALIPEXOLE]" readout_kind=AC50 measurement="> 30 µM"
molecule="O=C(O)CCNC(=O)c1ccc(/N=N/c2ccc(O)c(C(=O)O)c2)cc1 [BALSALAZIDE]" readout_kind=AC50 measurement="> 30 µM"
molecule="O=C(O)COCCN1CCN(C(c2ccccc2)c2ccc(Cl)cc2)CC1 (centres undefined) [CETIRIZINE]" readout_kind=AC50 measurement="> 10 µM"
molecule="OC[C@H]1O[C@@H](Oc2cc(O)cc(/C=C/c3ccc(O)cc3)c2)[C@H](O)[C@@H](O)[C@@H]1O [PICEID]" readout_kind=AC50 measurement="> 30 µM"
molecule="C[N+]12CCC(CC1)C(OC(=O)C(O)(c1ccccc1)c1ccccc1)C2 (centres undefined)" readout_kind=AC50 measurement="> 30 µM"
molecule="COc1cc(C(=O)OCc2cccc(COC(=O)c3cc(OC)c(OC)c(OC)c3)n2)cc(OC)c1OC [PIROZADIL]" readout_kind=AC50 measurement="> 30 µM"
molecule="Cc1ccccc1N1C(=O)c2cc(S(N)(=O)=O)c(Cl)cc2NC1C (centres undefined) [METOLAZONE]" readout_kind=AC50 measurement="> 10 µM"
molecule="O=C1Nc2ccc(Cl)cc2C(c2ccccc2Cl)=NC1O (centres undefined) [LORAZEPAM]" readout_kind=AC50 measurement="> 10 µM"

Now take the following molecule into account.
Inquiry: Item COc1ccc(C2C(=O)c3ccccc3C2=O)cc1 [ANISINDIONE] with Glutamate receptor ionotropic, NMDA 1 (Rattus norvegicus, UniProt P35439) - AC50?
Reply text: > 10 µM

----------
Biological target: B2 bradykinin receptor (Homo sapiens, UniProt P30411); further: assay procedure not described here
Sequence (P30411 whole entry): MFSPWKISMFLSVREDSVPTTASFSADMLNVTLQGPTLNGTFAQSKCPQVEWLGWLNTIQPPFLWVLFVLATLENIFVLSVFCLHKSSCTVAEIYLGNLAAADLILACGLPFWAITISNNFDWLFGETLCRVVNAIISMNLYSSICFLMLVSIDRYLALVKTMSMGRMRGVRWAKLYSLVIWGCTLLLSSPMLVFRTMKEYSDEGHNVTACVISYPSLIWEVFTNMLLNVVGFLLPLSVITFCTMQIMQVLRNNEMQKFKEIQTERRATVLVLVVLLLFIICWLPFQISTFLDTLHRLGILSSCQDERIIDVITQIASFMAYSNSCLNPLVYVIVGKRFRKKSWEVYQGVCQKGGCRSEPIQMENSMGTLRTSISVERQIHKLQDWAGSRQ
Readout Kind: AC50

Known results for molecules:
molecule="CC(c1cc2ccccc2s1)N(O)C(N)=O (centres undefined)" assayed_target="B2 bradykinin receptor (Homo sapiens, UniProt P30411)" readout_kind=AC50 measurement="> 10 µM"
molecule=NNC(=O)c1ccncc1 assayed_target="B2 bradykinin receptor (Homo sapiens, UniProt P30411)" readout_kind=AC50 measurement="> 30 µM"
molecule=CN(C)C/C=C/C(=O)Nc1cc2c(Nc3ccc(F)c(Cl)c3)ncnc2cc1O[C@H]1CCOC1 assayed_target="B2 bradykinin receptor (Homo sapiens, UniProt P30411)" readout_kind=AC50 measurement="> 30 µM"
molecule=CCOC(=O)c1ccc(C#Cc2ccc3c(c2)C(C)(C)CCS3)nc1 assayed_target="B2 bradykinin receptor (Homo sapiens, UniProt P30411)" readout_kind=AC50 measurement="> 30 µM"

Inquiry: Recorded AC50 for CC1=C(C(=O)OC(C)C)C(c2cccc([N+](=O)[O-])c2)C(C(=O)OC2CN(C(c3ccccc3)c3ccccc3)C2)=C(N)N1 (centres undefined) , please?
Reply text: > 10 µM

Inquiry: Then "CCCN1CCCC[C@H]1C(=O)Nc1c(C)cccc1C" ?
Reply text: > 30 µM

Inquiry: Do the same for CC(=O)c1ccc(S(=O)(=O)NC(=O)NC2CCCCC2)cc1 [ACETOHEXAMIDE] please
Reply text: > 10 µM

Inquiry: Then this molecule: "Cc1ccnc2c1NC(=O)c1cccnc1N2C1CC1"
Reply text: > 30 µM

Inquiry: Moving on to the next molecule: C=CCN1CCc2nc(N)sc2CC1 [TALIPEXOLE]
Reply text: > 30 µM
